// provenance: patent US20230365662A1

Items are presented alongside their recorded OD450nm.
Target entity: HRgpA-6H (Porphyromonas gingivalis) (UniProt P28784)
Protocol summary: ELISA, FASEBA Fab on coated HRgpA-6H
No unit in the answer, only the number.

Binder	OD450nm
KB001 mouse Fab VL S31D (Fab, V domains shown) VH: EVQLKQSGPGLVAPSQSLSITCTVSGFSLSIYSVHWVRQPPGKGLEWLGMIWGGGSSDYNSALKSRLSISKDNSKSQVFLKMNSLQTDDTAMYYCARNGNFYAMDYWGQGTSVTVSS VL: QIVLTQSPAIMSASLGERVTMTCTASSSVSDSFLHWYQQKPGSSPQLWIYSTSNLASGVPARFSGSGSGTSYSLTISSMEAEDAATYYCHQYHHSPYIYTFGGGTKLEIK	0.762

Then this binder:
OD450nm measured on KB001 mouse Fab VL S26D (Fab, V domains shown) VH: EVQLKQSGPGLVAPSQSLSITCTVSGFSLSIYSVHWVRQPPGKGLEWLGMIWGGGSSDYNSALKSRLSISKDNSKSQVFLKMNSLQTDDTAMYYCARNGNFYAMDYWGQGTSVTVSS VL: QIVLTQSPAIMSASLGERVTMTCTADSSVSSSFLHWYQQKPGSSPQLWIYSTSNLASGVPARFSGSGSGTSYSLTISSMEAEDAATYYCHQYHHSPYIYTFGGGTKLEIK = 0.821
